Multiple publications report IC50 for Renin (Homo sapiens, UniProt P00797); what follows is a combined list.
- target_desc: Renin (Homo sapiens, UniProt P00797)
- Sequence (P00797 whole entry): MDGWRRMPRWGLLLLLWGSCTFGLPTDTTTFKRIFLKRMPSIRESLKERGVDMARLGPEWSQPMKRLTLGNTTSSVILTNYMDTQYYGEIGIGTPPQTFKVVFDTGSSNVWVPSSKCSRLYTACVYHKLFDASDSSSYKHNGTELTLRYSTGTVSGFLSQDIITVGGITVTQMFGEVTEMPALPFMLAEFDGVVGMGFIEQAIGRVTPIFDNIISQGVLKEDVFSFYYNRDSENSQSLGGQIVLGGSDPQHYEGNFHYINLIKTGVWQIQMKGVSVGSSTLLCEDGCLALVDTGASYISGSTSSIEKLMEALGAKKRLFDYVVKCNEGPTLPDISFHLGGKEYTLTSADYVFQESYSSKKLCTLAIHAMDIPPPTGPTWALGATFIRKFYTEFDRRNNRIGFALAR
reported_endpoint: IC50 (nM)

Worked cases, answers included:
>  <compound>
C=C(C[C@H](O)[C@H](CC1CCCCC1)NC(=O)[C@H](C)NC(=O)[C@H](Cc1ccccc1)NC(=O)OC(C)(C)C)C(=O)NCC(C)C

>  <result_unit>
nM

>  <IC50>
10

$$$$
>  <compound>
COCCCOc1cc(C[C@@H](C[C@H](N)[C@@H](O)C[C@H](C(=O)NCC(C)(C)CNS(C)(=O)=O)C(C)C)C(C)C)ccc1OC

>  <result_unit>
nM

>  <IC50>
4.23

$$$$

P: CCNC(=O)[C@H](CC(C)C)NC(=O)C(Cc1c[nH]c2ccccc12)NC(=O)[C@H](CCCCN)N1C(=O)CC[C@@H](NC(=O)OCc2ccccc2)C(=O)N[C@H](Cc2ccccc2)C1=O (stereo in doubt)
Q: Cc1ccccc1N1CC(C)(C)N(C[C@H](N)[C@@H](O)C[C@H](C(=O)NCC(C)(C)C(N)=O)C(C)C)CC1=O
R: C[C@H](NC(=O)[C@H](Cc1ccccc1)NC(=O)OC(C)(C)C)C(=O)N[C@H](C=O)C(C1CCCCC1)C1CCCCC1
-- ask Descending sort on IC50 required. As an answer, provide the labels arranged in the order called for.
-- reply R, P, Q
